Provide the recorded pKd for the entries that follow.
# study-system: CHIKV p62-E1 (Chikungunya virus)
# protocol-summary: SPR (Biacore T100), IgG captured by anti-human IgG, p62-E1 injected
Conceptually, pKd converts a concentration in mol/L into minus its log10.

Incoming: Item 4N12 (antibody, V domains shown) VH: QVQLVQSGAEVKKPGASVKVSCKVSGYILSKLSVHWVRQAPGKGLEWMGGSEREDGETVYAQKFQGRISLTEDTSIETAYMELSSLSSEDTAVYYCATGGFWSMIGGNGVDYWGQGTLVTVSS VL: QAVVTQSPSSLPASVGDRVTITCRASQDIRNNLGWYQQKPGKAPERLIYGTSNLQSGVPSRFSGSGSGTEFTLTISSLQPEDFATYYCLQHNSYPPTFGRGTKVEIK has what recorded pKd?
Outgoing: 9.02

Incoming: Item under review: 4J21 (antibody, V domains shown) VH: QVQLVQSGSELKKPGASVKVSCKASGYSFTSYSINWVRQAPGQGPEWMGWIDTNTGNPTYAQDFAGRFVFSLDTSVTTAYLQISSLKAGDTAVYYCATYYVDLWGSYRQDYYGMDVWGHGTLVTVSS VL: QSVVTQPPSVSGTPGQGVTISCSGGSSNIGSNPVNWYQMVPGTAPKLLLYTNNQRPSGVPDRFSGSKSGTSASLAINGLQSEDEADYYCAVWDDSLSGRWVFGGGTKLTVL . Reported pKd?
Outgoing: 9.27

Incoming: Endpoint output: pKd of 5O14 (antibody, V domains shown) VH: QVQLVQSGGRVVQAGRSLRLSCAASGFTFSMYGVHWVRQAPGKGLEWVAVIWNDGSKEYYGDSVKGRFTISRDNSRNTLYLQMNSLRVDDTAVYFCARDGIPDPERGDYGGLDYWGQGTLVTVSS VL: QTVVTQFPSSPFASVGDGVTITCRARQSISSYVNWYQQKPGKAPKLLIYATSSLQSGVPSRFSGSGYGTDFTLTISGLQPEDFATYYCQQSYSFPRTFGQGTKVEIK . Value?
Outgoing: 8.94
